Source: patent US20120039802A1

Biological target: T1, human cMet expressed on 3T3 cells (human, UniProt P08581 25-1390)
T1 construct: whole, on cells; cells fixed with glutaraldehyde; also called cell surface-expressed human cMet; 3T3 cells that over-express human cMet
T1 sequence (P08581 25-1390): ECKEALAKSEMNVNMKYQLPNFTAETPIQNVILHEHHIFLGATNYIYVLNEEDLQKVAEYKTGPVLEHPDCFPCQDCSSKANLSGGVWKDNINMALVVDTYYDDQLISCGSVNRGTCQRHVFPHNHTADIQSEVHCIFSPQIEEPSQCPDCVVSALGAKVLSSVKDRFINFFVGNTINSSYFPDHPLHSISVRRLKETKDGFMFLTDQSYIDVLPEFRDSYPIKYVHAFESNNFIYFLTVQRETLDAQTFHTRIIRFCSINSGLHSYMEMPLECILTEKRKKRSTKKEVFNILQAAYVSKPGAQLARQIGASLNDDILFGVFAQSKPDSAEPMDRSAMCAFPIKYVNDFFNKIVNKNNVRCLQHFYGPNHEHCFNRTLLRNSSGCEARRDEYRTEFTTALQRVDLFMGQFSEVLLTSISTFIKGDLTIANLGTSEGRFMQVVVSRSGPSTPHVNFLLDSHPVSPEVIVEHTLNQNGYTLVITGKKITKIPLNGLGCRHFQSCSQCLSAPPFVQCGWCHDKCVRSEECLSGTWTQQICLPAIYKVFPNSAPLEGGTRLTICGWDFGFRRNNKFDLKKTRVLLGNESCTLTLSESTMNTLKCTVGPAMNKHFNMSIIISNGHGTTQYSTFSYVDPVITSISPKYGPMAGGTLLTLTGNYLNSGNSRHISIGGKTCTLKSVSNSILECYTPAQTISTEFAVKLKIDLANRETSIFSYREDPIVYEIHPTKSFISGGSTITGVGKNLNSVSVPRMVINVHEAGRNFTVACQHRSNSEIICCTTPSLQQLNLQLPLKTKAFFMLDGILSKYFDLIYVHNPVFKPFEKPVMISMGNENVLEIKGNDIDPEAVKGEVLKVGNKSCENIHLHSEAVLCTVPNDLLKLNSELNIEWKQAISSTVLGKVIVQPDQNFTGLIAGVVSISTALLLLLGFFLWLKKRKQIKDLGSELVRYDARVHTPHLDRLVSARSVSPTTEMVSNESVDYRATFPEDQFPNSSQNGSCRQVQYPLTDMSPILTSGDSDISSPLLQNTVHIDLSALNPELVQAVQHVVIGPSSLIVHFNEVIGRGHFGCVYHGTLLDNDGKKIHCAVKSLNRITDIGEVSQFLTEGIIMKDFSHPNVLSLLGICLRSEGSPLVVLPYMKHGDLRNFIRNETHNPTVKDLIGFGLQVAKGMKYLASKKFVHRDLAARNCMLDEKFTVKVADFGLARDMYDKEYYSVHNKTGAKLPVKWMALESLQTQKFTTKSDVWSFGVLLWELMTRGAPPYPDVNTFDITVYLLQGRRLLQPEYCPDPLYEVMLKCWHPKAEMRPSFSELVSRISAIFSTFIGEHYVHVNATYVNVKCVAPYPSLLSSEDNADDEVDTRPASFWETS
Assay: whole cell phage ELISA, 3T3 human cMet vs 3T3
Method: Whole cell ELISAs were performed using 3T3 cells that over-express human cMet. […] Briefly, 96-well plates were seeded with 10⁵ cells per well. The plates were centrifuged for 5 minutes at 1600 rpm to pellet the cells. The resulting cell layer was fixed with 0.1% (v/v) glutaraldehyde for 12 minutes at 37 C. […] The plates were washed with PBST. cMet-binding peptide-displaying phage were detected using an HRP-conjugated anti-M13 antibody.
The following binders are shown together with reported WC ELISA (fold over background) values.
Only the number, expressed in fold, is required.

Use the examples below as a reference point.
binder	scaleUnit	WC ELISA (fold over background)
AQHWDYDSGSDFWFPVFFLEHH [79-B02 peptide-displaying phage (SEQ ID NO: 475)]	fold	1.3
GSTKVCHEKWNQLFCHNQAP [549-G01 peptide-displaying phage (SEQ ID NO: 368)]	fold	1.27
AGVWICRVWDDECFFQGT [376-E05 peptide-displaying phage (SEQ ID NO: 020)]	fold	1.37
GDYDYCDFDLETYIPECHSYDP [546-G02 peptide-displaying phage (SEQ ID NO: 390)]	fold	1.27
AGETTCLGWPTFVCVDYGT [548-E08 peptide-displaying phage (SEQ ID NO: 063)]	fold	1.27
AQVGTAEAIMFSDVEDTGVHKF [103-G08 peptide-displaying phage (SEQ ID NO: 459)]	fold	1.33
GSILYCINRNDPQCPYTAP [465-C10 peptide-displaying phage (SEQ ID NO: 101)]	fold	1.27
AGTMYCLGPPTFICQQYGT [548-C06 peptide-displaying phage (SEQ ID NO: 084)]	fold	1.23

Ask | Fill blank: measured WC ELISA (fold over background) of the binder AGTLSCSEEYKSCQLQGT [465-E09 peptide-displaying phage (SEQ ID NO: 027)] is ____.
Reply | 1.3

Ask | Further, for AQWNWDMGFMWTTDSAQVQPSM [96-D06 peptide-displaying phage (SEQ ID NO: 489)] ?
Reply | 1.37

Ask | For AGHTICQHKALGCPANGT [465-C07 peptide-displaying phage (SEQ ID NO: 041)] then?
Reply | 1.27

Ask | Follow-up entry: GSSHLCNPEFCHFTAP [465-D09 peptide-displaying phage (SEQ ID NO: 003)]
Reply | 1.3

Ask | Can you check AGNYFCAGSPSFSCYFMGT [330-C10 peptide-displaying phage (SEQ ID NO: 054)] next?
Reply | 1.33

Ask | Again, but for AGTWHCAGPPWFTCYMDGT [551-B02 peptide-displaying phage (SEQ ID NO: 069)]
Reply | 1.3

Ask | Queued: AGDHYCWEEWWFCWDSGT [482-A12 peptide-displaying phage (SEQ ID NO: 021)]
Reply | 1.37
